Ref: the RNAGym collection of RNA variant scans (doi:10.7554/elife.80360)

B1: Twister Ribozyme (parent)
chain: AACACUGCCAAUGCCGGUCCCAAGCCCGGAUAAAAGUGGAGGGGGCGG

# Variants of: B1
# method: self-cleavage, relative activity (ratio to wild type); higher = more cleavage; co-transcriptional
Mark 1 for reported self-cleavage of 0.7 or greater; mark 0 for anything smaller.

Completed entries (count: 4):
Does the reported self-cleavage for C14U A22C fall at or above the 0.7 mark? 1

Consider next the variant C5A U6G in the same way. 0

Consider next the variant A10U A40U in the same way. 0

Consider next the variant C21A A34U in the same way. 0

Next variant, please.
Does the reported self-cleavage for C8G A10U fall at or above the 0.7 mark? 0
